PBM binding z-score values by entry
System: RARb homodimer (NR concentration 270 nM)
testDescription: PBM binding z-score (relative to random genomic background probes); higher = stronger binding; sequences stand for … in GC…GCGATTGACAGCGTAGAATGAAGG
I'd appreciate a reply containing only the number, no unit.

>  <inputSequence>
CGTCCAAGGTCGATGCTAGGTCAGTGAAAGCATT

>  <PBM binding z-score>
3.05

$$$$
>  <inputSequence>
TCTCGGAGGACACGAAGGTCCGAGCTTTCCAGAG

>  <PBM binding z-score>
0.577

$$$$
>  <inputSequence>
CCTACTGGGCCATTCAGAGGTCATTGCTCATATG

>  <PBM binding z-score>
3.78

$$$$
>  <inputSequence>
CCAGACAGGTGTGAAGGTAACTCAGCCTCGATTA

>  <PBM binding z-score>
0.327

$$$$
>  <inputSequence>
TCTATTAGTTGAAAGGCAACCGACGAGTCCGTTT

>  <PBM binding z-score>
-0.227

$$$$

Please turn your attention to the following entry.
Form field PBM binding z-score, entry CCTAGTTGGTCAGGAGCTCACACACCGGATATGA : 0.161

Values from the supplement of paper PMC6555819
